- STUDY CONDITIONS: in isopropanol, 293.15 K
RECORDED METRIC: solubility (mole fraction)
Numbers only.

# solubility (mole fraction) of CCOc1ccc(C=O)cc1O = 0.0063

====

- STUDY CONDITIONS: in isopropyl acetate, 298.15 K
RECORDED METRIC: solubility (mole fraction)

Sure, the documented solubility (mole fraction) for CCOc1ccc(C=O)cc1O is 0.0202

====

- STUDY CONDITIONS: in isopropanol, 318.15 K
RECORDED METRIC: solubility (mole fraction)
Answers are plain numbers.

So, CCOc1ccc(C=O)cc1O ? Its solubility (mole fraction) was 0.0216
